Cited source: ChEMBL document CHEMBL3580554

Test system: Mus musculus
assay remarks: Anticonvulsant activity in Swiss mouse assessed as protection against seizures at 300 mg/kg, ip dosed 1 hr before initiation of maximal electroconvulsions by maximal electroshock test
Assay type: functional
reported endpoint: Activity (%)

CC(C(=O)N1CCN(c2cccc(F)c2)CC1)N1C(=O)CCC1=O (racemic) ... 75
Cc1cccc(N2CCN(C(=O)C(C)N3C(=O)CCC3=O)CC2)c1 (racemic) ... 0
CC(C(=O)N1CCN(c2ccc(Cl)cc2)CC1)N1C(=O)CCC1=O (racemic) ... 0
COCC(C(=O)N1CCN(c2cccc(C(F)(F)F)c2)CC1)N1C(=O)CCC1=O (racemic) ... 100
CCC(C(=O)N1CCN(c2cccc(C(F)(F)F)c2)CC1)N1C(=O)CCC1=O (racemic) ... 100

* * *

Listed below: Activity values for each entry.
Test system: Mus musculus
assay remarks: Anticonvulsant activity in Swiss mouse model of 6 Hz psychomotor seizure mode assessed as protection against seizures at 100 mg/kg, ip dosed 0.5 hrs before 6 Hz electrical stimulation by 6 Hz test
Type: functional
reported endpoint: Activity (%)

CC(C(=O)N1CCN(c2ccccc2C(F)(F)F)CC1)N1C(=O)CCC1=O (racemic) ... 25
CC(C(=O)N1CCN(c2cccc(Cl)c2)CC1)N1C(=O)CCC1=O (racemic) ... 100
COCC(C(=O)N1CCN(c2cccc(C(F)(F)F)c2)CC1)N1C(=O)CCC1=O (racemic) ... 100
CC(C(=O)N1CCN(c2cccc(C(F)(F)F)c2)CC1)N1C(=O)CCC1=O (racemic) ... 100
CCC(C(=O)N1CCN(c2cccc(C(F)(F)F)c2)CC1)N1C(=O)CCC1=O (racemic) ... 100

* * *

Tested on: Mus musculus
assay remarks: Anticonvulsant activity in Swiss mouse model of 6 Hz psychomotor seizure mode assessed as protection against seizures at 100 mg/kg, ip dosed 2 hrs before 6 Hz electrical stimulation by 6 Hz test
Assay type: functional
Measured Activity of individual entries
reported endpoint: Activity (%)

CC(C(=O)N1CCN(c2ccccc2C(F)(F)F)CC1)N1C(=O)CCC1=O (racemic) ... 0
COCC(C(=O)N1CCN(c2cccc(C(F)(F)F)c2)CC1)N1C(=O)CCC1=O (racemic) ... 25
CCC(C(=O)N1CCN(c2cccc(C(F)(F)F)c2)CC1)N1C(=O)CCC1=O (racemic) ... 50
CC(C(=O)N1CCN(c2cccc(C(F)(F)F)c2)CC1)N1C(=O)CCC1=O (racemic) ... 100
CC(C(=O)N1CCN(c2cccc(Cl)c2)CC1)N1C(=O)CCC1=O (racemic) ... 25

* * *

assay remarks: Toxicity in ip dosed Swiss mouse assessed as induction of motor performance impairment measured within 60 seconds measured at 0.25 hrs of time to peak effect by Chimney test
Type: organism-based
test parameters: in vivo
reported endpoint: TD50 at 0.25 h (mg/kg)

CCC1(C)CC(=O)NC1=O (centres undefined) [ETHOSUXIMIDE] ... 722
COCC(C(=O)N1CCN(c2cccc(C(F)(F)F)c2)CC1)N1C(=O)CCC1=O (racemic) ... 203
CC(C(=O)N1CCN(c2ccccc2C(F)(F)F)CC1)N1C(=O)CCC1=O (racemic) ... 149
CCC(C(=O)N1CCN(c2cccc(C(F)(F)F)c2)CC1)N1C(=O)CCC1=O (racemic) ... 199
